Reported refractive index is given for each of the following compounds.
Assay: refractive index (Na D-line) (dimensionless)
Conditions: 333.15 K; 101.33 kPa; Liquid; Standard Abbe refractometry
Output spec: single numeric token, no unit.

CC(C)COC(=O)[C@H](C)[NH3+].CCCCCCCCCCCCOS(=O)(=O)[O-] [(S)-1-isobutoxy-1-oxopropan-2-aminium dodecyl sulfate] | 1.4377
CC(C)OC(=O)CC[C@H]([NH3+])C(=O)OC(C)C.CCCCCCCCCCCCOS(=O)(=O)[O-] | 1.4429
CC(C)OC(=O)C[NH3+].CCCCCCCCCCCCOS(=O)(=O)[O-] [2-isopropoxy-2-oxoethan-1-aminium dodecyl sulfate] | 1.4465

Name the reported refractive index value associated with the compound CC(C)OC(=O)[C@@H]1CCC[NH2+]1.CCCCCCCCCCCCOS(=O)(=O)[O-] [(S)-2-(isopropoxycarbonyl)pyrrolidin-1-ium dodecyl sulfate]
1.4432

Also check CC(C)COC(=O)[C@@H]1CCC[NH2+]1.CCCCCCCCCCCCOS(=O)(=O)[O-] [(S)-2-(isobutoxycarbonyl)pyrrolidinium dodecyl sulfate]
1.4427

Follow-up item: CC(C)COC(=O)C[NH3+].CCCCCCCCCCCCOS(=O)(=O)[O-] [2-isobutoxy-2-oxoethan-1-aminium dodecyl sulfate]
1.443

Now this one: CC(C)COC(=O)[C@@H](N)C(C)C.CCCCCCCCCCCCOS(=O)(=O)O [isobutyl L-valinate dodecyl sulfate]
1.4422

And the next one, CC(C)COC(=O)CC[C@H]([NH3+])C(=O)OCC(C)C.CCCCCCCCCCCCOS(=O)(=O)[O-] ?
1.4432

Now try CC(C)OC(=O)[C@@H]([NH3+])C(C)C.CCCCCCCCCCCCOS(=O)(=O)[O-] .
1.4419

====

Details: 308.15 K; 101.33 kPa; Liquid; Sing-around technique in a fixed-path interferometer
Numbers after ± are expanded uncertainties.
PROPERTY: speed of sound

For orientation, consider the following solved cases.
CC(C)COC(=O)[C@H](C)[NH3+].CCCCCCCCCCCCOS(=O)(=O)[O-] [(S)-1-isobutoxy-1-oxopropan-2-aminium dodecyl sulfate] | 1362.5 ± 5 m/s
CC(C)OC(=O)[C@@H]([NH3+])C(C)C.CCCCCCCCCCCCOS(=O)(=O)[O-] | 1365.9 ± 5 m/s
CC(C)COC(=O)[C@@H]1CCC[NH2+]1.CCCCCCCCCCCCOS(=O)(=O)[O-] [(S)-2-(isobutoxycarbonyl)pyrrolidinium dodecyl sulfate] | 1397.2 ± 5 m/s

// speed of sound lookup, key: CC(C)OC(=O)CC[C@H]([NH3+])C(=O)OC(C)C.CCCCCCCCCCCCOS(=O)(=O)[O-]
1347.9 ± 5 m/s

Same question, CC(C)OC(=O)C[NH3+].CCCCCCCCCCCCOS(=O)(=O)[O-] [2-isopropoxy-2-oxoethan-1-aminium dodecyl sulfate] this time
1355.1 ± 5 m/s

Follow-up entry: CC(C)COC(=O)C[NH3+].CCCCCCCCCCCCOS(=O)(=O)[O-] [2-isobutoxy-2-oxoethan-1-aminium dodecyl sulfate]
1355.2 ± 5 m/s

Would you mind doing CC(C)OC(=O)[C@@H]1CCC[NH2+]1.CCCCCCCCCCCCOS(=O)(=O)[O-] [(S)-2-(isopropoxycarbonyl)pyrrolidin-1-ium dodecyl sulfate] as well?
1386.3 ± 5 m/s

Note, next up: CC(C)COC(=O)[C@@H](N)C(C)C.CCCCCCCCCCCCOS(=O)(=O)O [isobutyl L-valinate dodecyl sulfate]
1379.9 ± 5 m/s
